Source of measurements: ChEMBL document CHEMBL3585326

Ki, UniProtKB P22303: measured values
Sequence (P22303 whole entry): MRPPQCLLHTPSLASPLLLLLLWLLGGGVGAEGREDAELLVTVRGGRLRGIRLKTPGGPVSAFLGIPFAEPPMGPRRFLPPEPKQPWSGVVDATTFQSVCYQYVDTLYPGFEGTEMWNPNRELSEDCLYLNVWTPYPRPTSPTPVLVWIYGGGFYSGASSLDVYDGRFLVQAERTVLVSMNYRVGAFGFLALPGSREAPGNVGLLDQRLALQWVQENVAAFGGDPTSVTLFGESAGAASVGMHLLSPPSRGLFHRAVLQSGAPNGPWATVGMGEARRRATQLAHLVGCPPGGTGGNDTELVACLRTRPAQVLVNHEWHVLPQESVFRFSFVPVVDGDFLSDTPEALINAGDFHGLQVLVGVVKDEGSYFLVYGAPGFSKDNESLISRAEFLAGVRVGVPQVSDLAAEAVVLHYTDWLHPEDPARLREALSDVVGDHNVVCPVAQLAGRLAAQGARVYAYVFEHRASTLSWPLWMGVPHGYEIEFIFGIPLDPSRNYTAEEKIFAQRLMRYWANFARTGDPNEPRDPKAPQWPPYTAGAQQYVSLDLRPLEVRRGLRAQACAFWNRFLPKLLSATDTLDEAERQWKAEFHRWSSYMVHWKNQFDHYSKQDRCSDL
value-kind: Ki (pM)

COc1ccc(C(C)NS(N)(=O)=O)cc1OC (stereo not given) : 4.9
COc1ccc(C(C)NS(N)(=O)=O)cc1 (stereo not given) : 6.3
COc1ccc(OC)c(C(C)NS(N)(=O)=O)c1 (stereo not given) : 5.6
COc1ccc(C(C)NS(=O)(=O)NC(=O)OCc2ccccc2)cc1OC (stereo not given) : 5.1
COc1cccc(OC)c1C(C)NS(=O)(=O)NC(=O)OCc1ccccc1 (stereo not given) : 10.5
COc1ccccc1C(C)NS(=O)(=O)NC(=O)OCc1ccccc1 (stereo not given) : 5.6
COc1cccc(OC)c1C(C)NS(N)(=O)=O (stereo not given) : 8.1
COc1ccc(C(C)NS(=O)(=O)NC(=O)OCc2ccccc2)cc1 (stereo not given) : 4.5
COc1ccccc1C(C)NS(N)(=O)=O (stereo not given) : 38.2
COc1ccc(OC)c(C(C)NS(=O)(=O)NC(=O)OCc2ccccc2)c1 (stereo not given) : 22.9
